The reported numbers originate from patent US6881824B1.

IC50 values, listed per item
Target: DR4 (DRB1*0401) molecules purified from the homozygous EBV-transformed human B lymphoblastoid cell line … (human, UniProt P01903 26-254)
Measurement Name: IC50

[
  {
    "Binder": "THIIYSFANISNDHID [HC gp-39 peptide 6 (residues 52-67)]",
    "Reported Result": "< 1000 nM"
  },
  {
    "Binder": "DFQGSFCGQDLRFPLT [HC gp-39 peptide 57 (residues 358-373)]",
    "Reported Result": "1000 to 10000 nM"
  },
  {
    "Binder": "FSKIASNTQSRRTFIK (This is probably a misprint) [HC gp-39 peptide 15 (residues 106-121)]",
    "Reported Result": "< 1000 nM"
  }
]
